The entries below are paired with their reported pIC50.
Test system: Schistosoma mansoni
Test: Antischistosomal activity against Schistosoma mansoni NTS incubated for 72 hrs
Type: functional, organism-based
Keep it numeric: pIC50 is minus log10 of the concentration in mol/L.

Check out these entries, answers already filled in.
* CCOC(=O)C(C#N)(Cc1ccc(Cl)cc1)OOC(C)(C)C (stereo not drawn) | 5.05
* C=CCC12CCC3(C)O[C@]1(C)OO[C@]2(C)O3 | 4.81

Consider the molecule shown here: CCOC(=O)C(C#N)(Cc1ccccc1)OOC(C)(C)C (stereo not drawn) What is its recorded pIC50? 4.17

---

Tested on: Schistosoma mansoni
Test: Antischistosomal activity against Schistosoma mansoni NTS incubated for 72 hrs
Assay type: functional, organism-based
pIC50: −log10 of the molar value.
Outcome label depends on pIC50 relative to 5: at/above gives t, below gives f.

Consider the worked cases shown below.
- C[C@]12OO[C@](C)(OO1)C2CCC(=O)N1CCCCC1 (stereo partly specified): t
- CCOC(=O)C(Cc1ccccc1)(OOC(C)(C)C)C(=O)OCC: f
- Cc1ccc(CC23CCC4(C)O[C@]2(C)OO[C@]3(C)O4)cc1: t

Assess whether reported pIC50 for CC(c1ccc(Cl)cc1)C1[C@]2(C)OO[C@@]1(C)OO2 (stereo partly specified) sits at 5 or higher. t

Assess whether reported pIC50 for CC(=O)C(C)(OOC(C)(C)C)C(C)=O sits at 5 or higher. f
